Target: hCA IX (Homo sapiens, UniProt Q16790)
Experiment: CA CO2 hydrase activity assay, tumor-associated isozyme hCA IX
Conditions: read-out: KI against CA IX; text discussion of Tables 1-3
READOUT_NAME: Ki

Look at this compound and give its reported Ki. Nc1nccc(Nc2ccc(S(N)(=O)=O)cc2)n1
16 to 32 nM

* * *

melting point for assorted compounds
Where a name gives a salt, the structure may show the parent alone.

Previously resolved entries follow.
>  <COMPOUND>
CCCc1cc(-c2ccccc2)cc(CCC)[n+]1-c1ccc(S(=O)(=O)Nc2nnc(S(N)(=O)=O)s2)cc1 (as salt: perchlorate) [Compound 77]

>  <RESULT>
235 to 237 °C

$$$$
>  <COMPOUND>
CCCCc1cc(-c2ccccc2)cc(-c2ccccc2)[n+]1-c1ccc(S(=O)(=O)Nc2nnc(S(N)(=O)=O)s2)cc1 (as salt: perchlorate) [Compound 84]

>  <RESULT>
241 to 243 °C

$$$$
>  <COMPOUND>
CC(C)c1cc(-c2ccccc2)cc(-c2ccccc2)[n+]1-c1ccc(S(=O)(=O)Nc2nnc(S(N)(=O)=O)s2)cc1 (as salt: perchlorate) [Compound 83]

>  <RESULT>
186 to 188 °C

$$$$
>  <COMPOUND>
Cc1cc(C(C)C)[n+](-c2ccc(S(=O)(=O)Nc3nnc(S(N)(=O)=O)s3)cc2)c(C(C)C)c1 (as salt: perchlorate) [Compound 73]

>  <RESULT>
278 to 279 °C

$$$$
>  <COMPOUND>
Cc1cc(-c2ccccc2)cc(-c2ccccc2)[n+]1-c1ccc(S(=O)(=O)Nc2nnc(S(N)(=O)=O)s2)cc1 (as salt: perchlorate) [Compound 80]

>  <RESULT>
298 to 299 °C

$$$$

Look at this compound and give its reported melting point. Cc1cc(C)[n+](-c2ccc(S(=O)(=O)Nc3nnc(S(N)(=O)=O)s3)cc2)c(C)c1 (as salt: perchlorate) [Compound 71]
> 300 °C

Look at this compound and give its reported melting point. CC(C)c1cc(-c2ccccc2)cc(C(C)C)[n+]1-c1ccc(S(=O)(=O)Nc2nnc(S(N)(=O)=O)s2)cc1 (as salt: perchlorate) [Compound 79]
278 to 279 °C

Look at this compound and give its reported melting point. CCCc1cc(-c2ccccc2)cc(-c2ccccc2)[n+]1-c1ccc(S(=O)(=O)Nc2nnc(S(N)(=O)=O)s2)cc1 (as salt: perchlorate) [Compound 82]
214 to 215 °C

Look at this compound and give its reported melting point. NS(=O)(=O)c1nnc(NS(=O)(=O)c2ccc(-[n+]3c(-c4ccccc4)cc(-c4ccccc4)cc3-c3ccccc3)cc2)s1 (as salt: perchlorate) [Compound 87]
> 300 °C

* * *

pKi for assorted molecules
Target: hCA IX (Homo sapiens, UniProt Q16790)
Assay: CA CO2 hydrase activity assay, tumor-associated isozyme hCA IX
Conditions: read-out: KI hCA IX; Table 2; catalytic domain of the human, cloned isozyme
When answering, recall that pKi equals minus log10 of the concentration in mol/L, and write that number alone.

Previously resolved entries follow.
>  <SMILES_INPUT>
CCc1cc(-c2ccccc2)cc(CC)[n+]1CCc1ccc(S(N)(=O)=O)cc1

>  <pKi>
8.10

$$$$
>  <SMILES_INPUT>
Cc1cc(-c2ccccc2)cc(-c2ccccc2)[n+]1CCc1ccc(S(N)(=O)=O)cc1

>  <pKi>
7.43

$$$$
>  <SMILES_INPUT>
CC(C)c1cc(-c2ccccc2)cc(-c2ccccc2)[n+]1CCc1ccc(S(N)(=O)=O)cc1

>  <pKi>
7.11

$$$$
>  <SMILES_INPUT>
Cc1cc(C)[n+](CCc2ccc(S(N)(=O)=O)cc2)c(C(C)C)c1

>  <pKi>
7.51

$$$$
>  <SMILES_INPUT>
Cc1cc(C)[n+](-c2ccc(S(N)(=O)=O)cc2)c(C)c1

>  <pKi>
6.78

$$$$

Look at this molecule and give its reported pKi. Cc1cc(-c2ccccc2)cc(C)[n+]1CCc1ccc(S(N)(=O)=O)cc1
8.22

Look at this molecule and give its reported pKi. CCCc1cc(-c2ccccc2)cc(-c2ccccc2)[n+]1Cc1ccc(S(N)(=O)=O)cc1
7.07

Look at this molecule and give its reported pKi. Cc1cc(-c2ccccc2)cc(C)[n+]1-c1ccc(S(N)(=O)=O)cc1
7.32
